details: in propylene glycol, 318.2 K
measure: solubility (mole fraction)

smiles_notation=COc1c(C)c2c(c(O)c1C/C=C(\C)CCC(=O)OCCN1CCOCC1)C(=O)OC2 value_measured=0.00193

----------
conditions: in water, 303.2 K
measure: solubility (mole fraction)

smiles_notation=COc1c(C)c2c(c(O)c1C/C=C(\C)CCC(=O)OCCN1CCOCC1)C(=O)OC2 measure="solubility (mole fraction)" value_measured=2.29e-06

----------
settings: in ethyl acetate, 308.2 K
measure: solubility (mole fraction)

smiles_notation=COc1c(C)c2c(c(O)c1C/C=C(\C)CCC(=O)OCCN1CCOCC1)C(=O)OC2 value_measured=0.0802
